Measured values drawn from patent US20190352423A1 for this set.

# system name: CD63 on cells (human) (UniProt P08962)
# Sequence (P08962 2-238): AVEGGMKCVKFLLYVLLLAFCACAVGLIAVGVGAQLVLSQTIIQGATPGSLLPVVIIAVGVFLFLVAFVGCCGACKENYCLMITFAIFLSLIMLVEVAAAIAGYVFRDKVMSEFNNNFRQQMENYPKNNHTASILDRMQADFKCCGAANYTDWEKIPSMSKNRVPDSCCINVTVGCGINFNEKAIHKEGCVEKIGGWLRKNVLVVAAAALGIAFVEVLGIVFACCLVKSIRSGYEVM
# assay info: cell-based or functional assay
recorded metric: IC50 of cytotoxicity, Colo205 cells (CellTiter-GLO, 4 days) (µg/mL)
Write it as a number; the unit µg/mL goes unstated.

Query :: Please report the recorded IC50 of cytotoxicity, Colo205 cells (CellTiter-GLO, 4 days) for bsHER2xCD63-Duo3 with CD63 variant LY51H (bispecific antibody, part only; not given: HER2 arm (IgG1-153) VH and VL, V domains shown, part only) VH: EVQLQQSGPELVKPGASVKMSCKASGYTFTSYVMHWVRQTPGQGLEWIGYITPYNDGTKYNEKFKGKATLTSDKSSSTAYMELSSLTSEDSAVYYCVGGDNYYYAMDYWGQGTSVTVSAA VL: NIMVTQSPSSLAVSAGEKVTMSCKSSQSVLHSSNQKNYLAWYQQKPGQSPKLLIYWASTRVSGVPDRFTGSGSGTDFTLTISRVQAEDLAVYYCHQYFSSFTFGSGTKLEIKRT .
Result :: 10

Query :: Please report the recorded IC50 of cytotoxicity, Colo205 cells (CellTiter-GLO, 4 days) for bsCD63xb12-Duo3 with CD63 variant LS52 (bispecific antibody, part only; not given: b12 control arm VH and VL, V domains shown, part only) VH: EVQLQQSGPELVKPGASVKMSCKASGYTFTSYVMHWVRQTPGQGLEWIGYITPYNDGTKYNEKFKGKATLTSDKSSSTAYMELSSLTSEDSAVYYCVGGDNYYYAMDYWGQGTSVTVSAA VL: NIMVTQSPSSLAVSAGEKVTMSCKSSQSVLYHSNQKNYLAWYQQKPGQSPKLLIYWASTRVSGVPDRFTGSGSGTDFTLTISRVQAEDLAVYYCHQYFSSFTFGSGTKLEIKRT .
Result :: 2.25

Query :: Please report the recorded IC50 of cytotoxicity, Colo205 cells (CellTiter-GLO, 4 days) for bsCD63xb12-Duo3 with CD63 variant P72H (bispecific antibody, part only; not given: b12 control arm, V domains shown, part only) VH: EVQLQQSGPELVKPGASVKMSCKASGYTFTSYVMHWVRQTPGQGLEWIGYITHYNDGTKYNEKFKGKATLTSDKSSSTAYMELSSLTSEDSAVYYCVGGDNYYYAMDYWGQGTSVTVSAA VL: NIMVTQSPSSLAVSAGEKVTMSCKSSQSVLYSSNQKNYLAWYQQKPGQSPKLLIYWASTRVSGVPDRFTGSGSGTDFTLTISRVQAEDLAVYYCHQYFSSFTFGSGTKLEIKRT .
Result :: 10

Query :: Please report the recorded IC50 of cytotoxicity, Colo205 cells (CellTiter-GLO, 4 days) for bsCD63xb12-Duo3 with CD63 variant LN54H (bispecific antibody, part only; not given: b12 control arm VH and VL, V domains shown, part only) VH: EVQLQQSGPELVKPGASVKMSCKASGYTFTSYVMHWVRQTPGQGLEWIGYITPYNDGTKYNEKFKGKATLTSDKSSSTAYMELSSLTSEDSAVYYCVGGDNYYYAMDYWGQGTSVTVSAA VL: NIMVTQSPSSLAVSAGEKVTMSCKSSQSVLYSSHQKNYLAWYQQKPGQSPKLLIYWASTRVSGVPDRFTGSGSGTDFTLTISRVQAEDLAVYYCHQYFSSFTFGSGTKLEIKRT .
Result :: 10

Query :: Please report the recorded IC50 of cytotoxicity, Colo205 cells (CellTiter-GLO, 4 days) for bsCD63xb12-Duo3 (bispecific antibody, part only; not given: b12 control arm VH and VL, IgG1, V domains shown, part only) VH: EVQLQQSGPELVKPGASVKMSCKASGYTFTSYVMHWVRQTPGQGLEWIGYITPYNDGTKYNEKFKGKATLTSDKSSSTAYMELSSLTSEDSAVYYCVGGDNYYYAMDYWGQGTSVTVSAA VL: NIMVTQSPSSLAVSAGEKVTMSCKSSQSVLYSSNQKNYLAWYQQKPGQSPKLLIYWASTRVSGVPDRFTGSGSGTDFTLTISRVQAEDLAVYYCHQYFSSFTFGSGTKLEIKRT .
Result :: 2.61
